test system: antiserum against d,l-propranolol; experiment: Competition with 3H-propranolol for binding to antiserum against d,l-propranolol (radioimmunoassay specificity); set-up: species or system rabbit; settings: anti-d,l-propranolol antiserum; at 100 ng
measured-endpoint: inhibition of 3H-propranolol binding (%)
Give the value, in units of %, as a plain number.

Asked: Consider the compound O=C(O)COc1cccc2ccccc12 and give its measured inhibition of 3H-propranolol binding.
Given back: 10

Asked: Any idea what its inhibition of 3H-propranolol binding is? The compound is CC(C)NCC(O)c1ccc(Cl)c(Cl)c1 (centres unmarked)
Given back: 13

Asked: Which inhibition of 3H-propranolol binding value is on record for Oc1cccc2ccccc12 ?
Given back: 25

Then this compound:
Asked: For the compound CC(C)NCC(O)c1ccc2ccccc2c1 (centres unmarked) , what inhibition of 3H-propranolol binding is on record?
Given back: 45

###

Listing: inhibition of 3H-propranolol binding of selected compounds
system: antiserum against l-propranolol; assay: Competition with 3H-propranolol for binding to antiserum against l-propranolol (radioimmunoassay specificity); design: species or system rabbit; details: anti-l-propranolol antiserum; at 100 ng
Output spec: scalar in %, unitless text.

Please review the entries below; each comes with its answer.
Asked: I'd like to know its inhibition of 3H-propranolol binding. The compound in question is Oc1cccc2ccccc12
Given back: 45

Asked: Tell me the measured inhibition of 3H-propranolol binding of O=C(O)COc1cccc2ccccc12 , please.
Given back: 25

Now look at this entry.
Asked: Requested field: inhibition of 3H-propranolol binding. Item: Oc1ccc(O)c2ccccc12
Given back: 17
